observed-property: melting point

# annotated cases, reported melting point shown
[
  {
    "compound": "Fc1ccc(/C=C/c2nc(COc3ccc(CCCCn4ccnn4)cc3)co2)c(F)c1",
    "melting point": "115 to 117 °C"
  },
  {
    "compound": "OCC(O)Cc1nccn1CCCCc1ccc(OCc2coc(/C=C/c3ccc(C(F)(F)F)cc3)n2)cc1 (stereo not shown)",
    "melting point": "142 to 143 °C"
  },
  {
    "compound": "OCCc1nccn1CCCCc1ccc(OCc2coc(/C=C/c3ccc(Cl)cc3)n2)cc1",
    "melting point": "127 to 128 °C"
  }
]

Look up melting point for this compound: OCCc1nccn1CCCCc1ccc(OCc2coc(/C=C/c3ccc(F)cc3)n2)cc1 130 to 132 °C

Every entry's value here was drawn from patent US20040116330A1.
